# Tested on: MS2 coat protein
# Experiment: apparent KD of MS2 coat protein; designed switch direction (-1 OFF switch, 1 ON switch): -1; higher = weaker reporter binding
# Cond: input ligand: FMN 200 uM
Measured Parameter: apparent KD of MS2 coat protein (nM)
Numeric only. Scale: nM

AAGAAGAUCAGAGGAUAUGGAGCUGAAACGGCGCUAGAAGGCUGUCUAGUGUAACAUGAGGAUCACCCAUGUAGGGACCUCUAA [EX ng 1 4.3] (Eterna round: R96, puzzle: Exclusion NG 1) | 874
UUUUUAUAUGAAGGAUAUACUUAACAUGAGGAUCACCCAUGUGGUGUUGUGAGUGAGUGAGUUUAGUAGAAGGUCAAUUCUCUU [JMF's solution 81] (Eterna round: R96, puzzle: Exclusion NG 2) | 989

Report apparent KD of MS2 coat protein for AGAUCUAGGACAGGAUAUAUGGAUGUCUUCAUCGAAGAUGAAGACAUCACAUGAGGAUCACCCAUGUAGAAGGGUCCUAGAUCA [Omei Exc(NG) 2Av2] (Eterna round: R96, puzzle: Exclusion NG 2) please. 11.9

Sample UGAUCUAGCGGAGGAUAUACAUGAGGAUCACCCAUGUAUAGGCCAUGUGGUGACACGUGGAACAUGUAGAAGGCCGCUAGAUCU [JL ENG2 3.82] (Eterna round: R96, puzzle: Exclusion NG 2) — what was its apparent KD of MS2 coat protein? 287

What does the record list as apparent KD of MS2 coat protein for GAGUGCUGAGGAUAUACAUGAGGAUCACCCAUGUGCUUCAGCUAGGAGACUAGCAUUGGUAGAAGGCAGUACUC [Mod of lroppy - Jieux - Exclusion 3] (Eterna round: R97, puzzle: Exclusion 3) ? 76.8

###

# Test system: MS2 coat protein
# Experiment: apparent KD of MS2 coat protein, switch OFF state (with FMN for OFF switches, without FMN for ON switches); designed switch direction (-1 OFF switch, 1 ON switch): -1; higher = weaker reporter binding
# Cond: FMN input: 0 or 200 uM; Eterna round: R93 (includes R88 designs)
Entries and their apparent KD of MS2 coat protein values follow.
The figure you give is taken to be in nM; do not add the unit.

AAGAAACAUGAGGAUCACCCAUGUCAGGAUAUCAAAAAGAAAAGAAAAGAAAGAAGAAUGAGAAGGGACAAAGG [Meryibre Khety I] | 61.7

Recorded apparent KD of MS2 coat protein of AAAUAGUUAGGAUAUACAUGAGGAUCACCCAUGUGCACUUAUGGAGAAUAGGGUAAUGGUAGAAGGGACUAAAA [EX2 Malc#21] , please. 39.7

Would you mind telling me what apparent KD of MS2 coat protein value was observed for UAUAGACAUGAGGAUCACCCAUGUGAGGAUAUGAGUGACUACAGGACAUCACGUACAAUCAGAAGGCACAGAAA [JR_Exc001_Sub016] ? 60.9

###

# System: K4 kissing-loop RNA reporter;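 further: bound reporter read as fluorescence of individual clusters on recovered sequencing chips by microscopy, with normalized cluster intensities fitted with a binding model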
# Experiment: apparent KD of K4 kissing-loop reporter; higher = weaker reporter binding
# Cond: Eterna round: R107; input ligand: arginine 13.2 mM
Quick rule for you: apparent KD of K4 kissing-loop reporter at 100 nM or higher means Condition met, lower means Condition not met.

GUCCCAGUGAUGUUGGUAGGCGAGCGGGAUACCAGCGAAGACUCACGCCCUUGGCAGCCCACAUAUCCCACGUAGGGAUUAGCUC [Same State - Theophylline A (Freestyle 20)] | Condition met

Given the entry GGCCGGAAGGCGAGCGCUCCCACUCCGGAAGGAGCGCCCGGAAGGGCAGGUAGGUCGCCGGAGUGAUGUUCCGGUGGAGGGCUCG [#2 Exclusion - Arginine A Attempt #19 (Inspired by Omei)] , answer whether its apparent KD of K4 kissing-loop reporter meets or surpasses 100 nM. Condition met

Has GUGCAGUGAUGUUGCACGAGGAAAGACGAUACCAGCCGUAAAUAAGGCCCUUGGCAGCGUAGGCUAGCAUAAGGUAUGCUAGUCC [Atesermace] a recorded apparent KD of K4 kissing-loop reporter greater than or equal to 100 nM? Condition met

Can AAAUGCAGCAAACGAGUGAUGUUCGACGAUACCAGCCUCGAUAGAGGCCCUUGGCAGCGUACAUCAAAGCCAAGGGCUGCUAAAA [#SwitchBubble 3] be said to have apparent KD of K4 kissing-loop reporter at or above 100 nM? Condition met

Hello, I need to know if GCCGUAGAUUGAAGGAGCGGCAUUAACGAUGUUCUGGUAGUGAUGUUACCUCAGCAGACAUGCCAGGUAGGUCGCAAUCUACGGC has measured apparent KD of K4 kissing-loop reporter not below 100 nM. Thanks! Condition not met

Determine whether this sequence has apparent KD of K4 kissing-loop reporter no lower than 100 nM: AGGAGCGUGGGAUGGAAAUCGCACGCUCCUCGAGGACCGGUACGGCCGCCACUCGCUCGCGCCGAGUGAUGUUCGGCCGGCGAAG [#2 Same State - Tryptophan A Attempt #15 (HarryS)] Condition met

Answer whether apparent KD of K4 kissing-loop reporter of GAAUGAAAUAUCUGGCCCUAUCAGAAUUGGAAGGAUAUGACGGUCAUCAGAAGGUCCAACUCGUAGUGAUGUUGCGGGUUUUAAA [theeternabot_exclusion_KL_FMN_A_21] is greater than or equal to 100 nM. Condition not met

Does the sequence UUUGGUUUCUCGGCCGCCACUCGUUGGUUAUGGGCCUCAGGGAUAUAGUGAUGUUAUGUAAAGAAGAGGACCGGGAGAAGGAAGG [ExTryptoB.Do] have recorded apparent KD of K4 kissing-loop reporter that is 100 nM or more? Condition met

State whether the measured apparent KD of K4 kissing-loop reporter reaches 100 nM, counting equality as reaching it, for AGGCGGCAAGAUUGAUUGGAAAGUAAUCGACGAGGACCGGUACGGCCGCCACUCGAACACCAGUGAUGUUGGUCUGGCUUAAGCC [Exclusion Tryptophan A GF 20] Condition met

Entry UUAUUAAUAACAGAUACCAGUCCAGAAUGAAUACUAUAGUGAUGUUAUAAUAAAGGGAAGGACCCUUGGCAGCUGUAAUAUAUUU [AstrosSSTheB#1] : is its apparent KD of K4 kissing-loop reporter no less than 100 nM? Condition met

Quick check: does UAUCAGAUUACUGAUACCAGUCUAAAGACAGUGAUGUUGUCUGAUCGACCACGAUCAAAGGACCCUUGGCAGCAGUGUACUAUUC [#29 K4 Theophylline B Same State] have apparent KD of K4 kissing-loop reporter greater than or equal to 100 nM? Condition met

Hello, I need to know if UGGAUAUAGUGAUGUUAUAUAGAGAUGGAUACCAGUUGAGAGAAUAGCCCUUGGCAGCCGAAAGAAGUAUCAUUAGAGAAGAAUG [ExTheophyl.Ak] has measured apparent KD of K4 kissing-loop reporter not below 100 nM. Thanks! Condition met

Given the entry UGAUACCAGACUGAUACCAGCAAGUGAUGUUUGUUGAUCUAAAGCAGUCAAAGACUGCCUUGCCCUUGGCAGCAGUCUGGUAUCU [TheoBX 27 #SwitchBubble #StaticStem] , answer whether its apparent KD of K4 kissing-loop reporter meets or surpasses 100 nM. Condition met

Given the entry UUAGAGGCCCAGUGAUGUUGGGUGGUUGGGCGAGGACCGGUACGGCCGCCACUCGCCGCGGAACUAUCGGAAUCUCGCUCGGCUA [Aninxearqu] , answer whether its apparent KD of K4 kissing-loop reporter meets or surpasses 100 nM. Condition met

Item AGACUACUGAUAGGAUAUAACAUACUACUCGUAUACCGAAAGGUAUACGAGACCCUUCUAGUGAUGUUAGAAGGGUCGGUAGUCA [Omei KL FMN B Exc B v8] with apparent KD of K4 kissing-loop reporter of 100 nM or above? Condition not met

Dear colleague, could you confirm whether AAACGUUGGUCUGAUACCAGCUUGAUCGGUAAACGAUCUACUGGAGUGAUGUUCCUAAAUAGCCCUUGGCAGCAGACCGACGAAA [MAT - Same State Theophlline B - Mod of Eli - D7] has apparent KD of K4 kissing-loop reporter at or above 100 nM? Condition met

Does AUGUAUGAAUUAGGAUAUCGUUAGCCUUGCAUAUAUAUGAUAAAUGGAUAUGUCGUAGUGAUGUUACGAGAAGGAGUGUGGAGUA [KL-XFMN-B5] have a reported apparent KD of K4 kissing-loop reporter of at least 100 nM? Condition not met

Hello, I need to know if GCGUGCAAGUCAUGAUGCCCUAUCAGGACUAAGGAUAUAGCGUGACCUAGAAGGUAGCUAGUGAUGUUGGCUGACAUGCUACUGC [theeternabot_exclusion_KL_FMN_A_49] has measured apparent KD of K4 kissing-loop reporter not below 100 nM. Thanks! Condition met

Does UAGUCAUACAGAGGAUAUCGUAUGAGUGAUGUUCAAGUGCGUACAUCAACUUGAUGUACAGAUAGACGAGAAGGCUGUAUGACUA [FMB B SS t6] have a reported apparent KD of K4 kissing-loop reporter of at least 100 nM? Condition met
